Every entry's value here was drawn from PubChem BioAssay (NCI).

Task for the reader: assign each of the following compounds its reported TGI.
system: A498 renal; test: NCI tumour cell line growth inhibition, 48 h

Worked cases, TGI given:
{"Compound": "COc1cccc(Cc2cc(=O)c3ccc(C)nc3[nH]2)c1", "TGI": "> 100 µM"}
{"Compound": "O=c1[nH]c(-n2[nH]c3c(c2=O)CCCC3)nc(O)c1-c1ccccc1", "TGI": "> 100 µM"}

Now for the compound whose TGI we want.
query: Name the recorded TGI of the compound listed here: CC(C)(C)OC(=O)NC(CO)c1cccc(OCc2ccccc2)c1 (stereo not drawn)
result: > 100 µM

* * *

test system: OVCAR-3 ovarian; experiment: NCI tumour cell line growth inhibition, 48 h
Threshold check on TGI: at or above 10 µM gives T, strictly below gives F.

{"Compound": "COc1cccc(Cc2cc(=O)c3ccc(C)nc3[nH]2)c1", "Assigned label": "T"}

Next, consider the following compound.
query: Dear colleague, could you confirm whether CC(C)=CCN1c2ccc(Cl)cc2NC(=O)CC1C (centres undefined) has TGI at or above 10 µM?
result: T
